- Study target: T1, human LIGHT (TNFSF14), full length, membrane-bound (214E allele) (human, UniProt O43557 1-240)
- T1 construct: also called membrane LIGHT; human membrane LIGHT
- T1 sequence (O43557 whole entry K214E): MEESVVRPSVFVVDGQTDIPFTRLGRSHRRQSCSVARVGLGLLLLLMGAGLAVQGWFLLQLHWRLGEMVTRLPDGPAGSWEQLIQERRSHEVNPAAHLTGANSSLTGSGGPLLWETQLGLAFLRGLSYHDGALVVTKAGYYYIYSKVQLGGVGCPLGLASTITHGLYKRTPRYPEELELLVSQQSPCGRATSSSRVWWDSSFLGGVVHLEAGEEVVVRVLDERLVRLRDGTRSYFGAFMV
- Assay explanation: DcR3-His (1 nM) competition, EL4-LIGHT, flow cytometry; 11.1 nM

{"Binder": "3A07 (antibody, human IgG4, V domains shown, chimeric human IgG4 (S-to-P, L-to-E at 248), human CL; also called Parental 3A07) VH: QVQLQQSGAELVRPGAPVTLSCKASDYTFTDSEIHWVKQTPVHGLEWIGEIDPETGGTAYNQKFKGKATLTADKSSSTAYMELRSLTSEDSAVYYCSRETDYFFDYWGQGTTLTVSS VL: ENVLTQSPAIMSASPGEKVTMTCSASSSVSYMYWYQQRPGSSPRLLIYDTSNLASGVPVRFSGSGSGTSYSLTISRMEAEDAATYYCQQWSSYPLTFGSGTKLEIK", "Unit annotation": "%", "DcR3-His binding, % of irrelevant mAb": 75.8}
{"Binder": "3C10 (antibody, human IgG4, V domains shown, chimeric human IgG4 (S-to-P, L-to-E at 248), human CL; also called Parental 3C10) VH: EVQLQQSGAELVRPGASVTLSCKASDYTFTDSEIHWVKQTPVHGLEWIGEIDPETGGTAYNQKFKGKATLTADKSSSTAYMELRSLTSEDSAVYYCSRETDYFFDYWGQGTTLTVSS VL: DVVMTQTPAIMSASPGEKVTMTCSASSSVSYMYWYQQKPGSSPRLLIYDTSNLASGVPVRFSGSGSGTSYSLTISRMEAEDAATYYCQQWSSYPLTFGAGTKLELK", "Unit annotation": "%", "DcR3-His binding, % of irrelevant mAb": 83.6}
